- SUBJECT OF TEST: T1, extracellular domain of rhesus monkey BCMA (rhesus monkey, UniProt F7FFA0 1-53)
- T1 construct: extracellular domain; also called RhBCMA
- PROTOCOL: Octet BLI; Fab 200 nM
OUTCOME MEASURE: pKd
One number for each entry, as −log10 of the molar value.

Example entries and their recorded answers appear below.
binder="AB200-(2Vk44)_R2-VH-v70 (Fab, V domains shown) VH: QVQLVQSGAEVKKPGSSVKVSCKASGGTFSNYWIHWVRQAPGQGLEWMGATYRIHSDTNYNQKYKSRVTITADKSTSTAYMELSSLRSEDTAVYYCARGAVYHGYDVIDNWGQGTLVTVSS VL: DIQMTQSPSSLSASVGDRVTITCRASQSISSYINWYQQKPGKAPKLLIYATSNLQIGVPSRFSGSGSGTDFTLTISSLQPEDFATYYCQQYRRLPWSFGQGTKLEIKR" outcome_measure=pKd val=7.45
binder="AB200-(2Vk44)_R2-VH-v41 (Fab, V domains shown) VH: QVQLVQSGAEVKKPGSSVKVSCKASGGTFTNYWIHWVRQAPGQGLEWMGGTYRIHSDTYYNEKFKSRVTITADKSTSTAYMELSSLRSEDTAVYYCARGAIYHGFDVIDNWGQGTLVTVSS VL: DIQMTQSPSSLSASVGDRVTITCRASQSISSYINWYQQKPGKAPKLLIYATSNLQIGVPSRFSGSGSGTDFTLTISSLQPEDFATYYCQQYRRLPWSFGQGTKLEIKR" outcome_measure=pKd val=7.90
binder="AB200-(2Vk44)_R2-VH-v64 (Fab, V domains shown) VH: QVQLVQSGAEVKKPGSSVKVSCKASGGTFSNYWIHWVRQAPGQGLEWMGATYRIHSTTYYAQKFKSRVTITADKSTSTAYMELSSLRSEDTAVYYCARGAIYHGFDVIDNWGQGTLVTVSS VL: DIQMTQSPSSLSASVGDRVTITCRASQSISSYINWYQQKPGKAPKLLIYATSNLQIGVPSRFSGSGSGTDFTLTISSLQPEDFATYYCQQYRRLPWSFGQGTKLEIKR" outcome_measure=pKd val=7.44

Okay, next one:
# return recorded pKd for input AB200-(2Vk44)_R2-VH-v53 (Fab, V domains shown) VH: QVQLVQSGAEVKKPGSSVKVSCKASGGSFSNYWIHWVRQAPGQGLEWMGATYRIHSDTNYNQKYKSRVTITADKSTSTAYMELSSLRSEDTAVYYCARGAIFHGYDVIDNWGQGTLVTVSS VL: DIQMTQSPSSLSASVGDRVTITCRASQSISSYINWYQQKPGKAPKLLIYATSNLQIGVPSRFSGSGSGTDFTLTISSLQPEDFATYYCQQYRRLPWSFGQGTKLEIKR
6.99
